target: NADPH oxidase 5 (Homo sapiens); assay: compounds shifting NOX5 Amplex Red fluorescence – cell-based, HEK293-NOX5, NOX inhibitor project, primary screen (AID 1161); settings: HEK293-NOX5, ionomycin, 45 min, higher = more signal
The threshold is inclusive: z-score of exactly -2 counts as Yes; values below receive No.

Completed entries (count: 4):
Prompt line: Answer whether z-score of CCCCCC1=C2CNC(CC(C)C)(C(=O)OC)C=C2C(C)C1=O (stereo not given) is greater than or equal to -2.
Response line: No

Prompt line: Answer whether z-score of CN(C)c1ccc(C(O)C2C=CC3C(=O)N(Cc4ccccc4)C(=O)C3N2n2cnnc2)cc1 (stereo not given) is greater than or equal to -2.
Response line: Yes

Prompt line: Answer whether z-score of `COCCCNC(=O)[C@@]1(CCC(=O)OC(C)(C)C)COC(c2ccc(OCCCO)cc2)=N1` is greater than or equal to -2.
Response line: Yes

Prompt line: Answer whether z-score of `COC(=O)[C@@]1(Cc2ccc(OC)cc2)[C@H]2c3cc(C(=O)N(C)C)[nH]c3C[C@H]2CN1C(=O)c1ccccc1` is greater than or equal to -2.
Response line: Yes

Please turn your attention to the following entry.
Prompt line: Answer whether z-score of CC(C)C(O)C1C=CC2C(=O)NC(=O)C2N1Nc1ccccn1 (stereo not given) is greater than or equal to -2.
Response line: Yes
